Reference source for all entries: patent US20160214941A1

- System: T47D
- method summary: In vitro colorimetric cell death assay (MTT assay)
- Type: cell-based
- run parameters: T47D (breast cancer), 48 hours
property label: IC50 (µM)
# value in µM; strip the unit string

So for N.N.[Cl][Pt][Cl] [Cisplatin] , the logged IC50 turned out to be 95.5

* * *

- Test system: SiHa
- method summary: In vitro soft agar colony forming growth assay
- Format: cell-based
- run parameters: one week
property label: IC50 (µM)
# value in µM; strip the unit string

Observed IC50 on SiHa, entry N.N.[Cl][Pt][Cl] [Cisplatin] , equals 19.5

* * *

- Tested on: L929
- method summary: In vitro soft agar colony forming growth assay
- Type: cell-based
- run parameters: L929, one week
property label: IC50 (µM)
# value in µM; strip the unit string

So for N.N.[Cl][Pt][Cl] [Cisplatin] , the logged IC50 turned out to be 9.44
